target: Scavenger receptor class B member 1 (Mus musculus) (UniProt Q61009); experiment: mouse SR-BI DiI-HDL uptake blockers – ldlA[mSR-BI] cells, fluorescence, single point, primary screen (AID 488896); settings: ldlA[mSR-BI] CHO cells, 3 h, at 12.5 µM, stronger effect = higher value;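 also: 0% = median of neutral control wells and 100% = median of positive control wells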
Sequence (Q61009 whole entry, looked up): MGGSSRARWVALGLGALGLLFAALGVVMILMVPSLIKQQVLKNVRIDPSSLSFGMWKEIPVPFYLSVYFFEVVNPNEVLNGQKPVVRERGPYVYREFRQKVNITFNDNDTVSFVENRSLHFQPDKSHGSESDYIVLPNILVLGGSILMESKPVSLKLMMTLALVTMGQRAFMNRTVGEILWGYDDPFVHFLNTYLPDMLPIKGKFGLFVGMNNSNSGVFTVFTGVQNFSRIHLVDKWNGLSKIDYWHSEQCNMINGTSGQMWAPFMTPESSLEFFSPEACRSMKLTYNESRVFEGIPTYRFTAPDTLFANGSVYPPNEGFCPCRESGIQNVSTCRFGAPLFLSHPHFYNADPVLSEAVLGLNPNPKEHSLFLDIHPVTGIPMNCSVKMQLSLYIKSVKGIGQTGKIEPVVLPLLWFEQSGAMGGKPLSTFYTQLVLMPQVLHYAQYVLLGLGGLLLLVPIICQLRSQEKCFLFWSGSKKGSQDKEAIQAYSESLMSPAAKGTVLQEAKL
The campaign covered roughly 320,000 compounds. About 3,100 (0.97%) were called active. What follows is part of a selection rich in actives, with near analogues and random picks from the rest.
measured.attribute: inhibition (%)

CC(=O)Oc1ccc(OC(C)=O)c2c1C1C=CC2CC1	-21.7
COc1ccc(-c2ccc3c(c2)C2CC3CCN2CCC#N)cc1 (stereo unspecified)	33.2
O=C(Nc1ccc(-c2csc(Nc3cccc(C(F)(F)F)c3)n2)cc1)c1cccc(C(F)(F)F)c1	109
O=C(Nc1ccc2ccccc2c1[N+](=O)[O-])c1ccccc1	14.4
O=C(Nc1ccc(C(F)(F)F)cc1)c1cccc(-n2cnnn2)c1	9.16
O=S1(=O)CSCS(=O)(=O)C1	-19.5
O=C(CN1CCC(NC(=O)Nc2ccccc2)CC1)Nc1cccc([N+](=O)[O-])c1	30.9
O=C1/C(=C\c2ccc(O)cc2)CCC1CNc1ccc(Cl)cc1 (stereo unspecified)	18.3
O=C1c2ccccc2C(=O)N1CCCCCCN1C(=O)c2ccccc2C1=O	7.39
O=C(Nc1cccc(Br)c1)C1CC(=O)N(C2CCCC2)C1 (stereo unspecified)	-9.43
COc1ccc(-c2c(C)cc3oc(=O)cc(-c4ccccc4)c3c2C)cc1C=O	75.1

* * *

molecular target: Scavenger receptor class B member 1 (Mus musculus); assay: mouse SR-BI DiI-HDL uptake blockers – ldlA[mSR-BI] cells, fluorescence, single point, primary screen (AID 488896); conditions: ldlA[mSR-BI] CHO cells, 3 h, at 12.5 µM, stronger effect = higher value;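 also: 0% = median of neutral control wells and 100% = median of positive control wells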
Hit rate of the full screen: of about 320,000 compounds, about 3,100 (0.97%) were called active. The list comes from a sample in which actives are over-represented; it also holds close analogues and randomly drawn compounds.
# maps each entry to its inhibition
measured.attribute: inhibition (%)

C=CCCC(=O)N1C[C@H]2CON(C)[C@H]2C[C@H]1c1cccc(Nc2ccccc2)c1	2.33
CC(Nc1ccc([N+](=O)[O-])cc1[N+](=O)[O-])c1ccccc1 (stereo unspecified)	21.4
O=c1oc2ccccc2c(=O)c2ccccc12	-23.4
COc1ccc(CC(=O)Nc2nc(-c3ccc(F)c(F)c3)cs2)cc1OC	29.1
COc1cccc(/C=N/Nc2ccc(S(=O)(=O)Nc3ccccc3C(=O)O)cc2[N+](=O)[O-])c1O	-4.5
O=C(N/N=C/c1cc([N+](=O)[O-])ccc1O)/C(=C\c1cccs1)NC(=O)c1ccccc1	113
CCN1CCN(c2c(Cl)cccc2NC(=O)c2ccc(Br)o2)CC1	33.7
CCCC(=O)Nc1ccc(Cl)c(NC(=O)c2ccc(Br)o2)c1	70.8
C=CCNC(=O)/C(=C\c1cccc([N+](=O)[O-])c1)NC(=O)c1ccccc1	-15
CC1CN(Cc2ccco2)C(=S)N(c2ccccc2)C1=O (stereo unspecified)	-33.1
O=C1CC(C(=O)O)NC(=S)N1 (stereo unspecified)	-3.49

* * *

target: Scavenger receptor class B member 1 (Mus musculus); experiment: mouse SR-BI DiI-HDL uptake blockers – ldlA[mSR-BI] cells, fluorescence, single point, primary screen (AID 488896); conditions: ldlA[mSR-BI] CHO cells, 3 h, at 12.5 µM, stronger effect = higher value;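 also: 0% = median of neutral control wells and 100% = median of positive control wells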
Out of some 320,000 compounds screened, about 3,100 (0.97%) were called active. Many of the other results were omitted from the sample, so actives are more common in it than they were.
measured.attribute: inhibition (%)

O=C(NN=Cc1ccccc1)c1ccccc1	-4.39
CNc1nc(=O)n(C2CCCO2)cc1C (stereo not given)	0.704
CN(C)c1ccc(/C=N/Nc2cc(N3CCOCC3)nc(N3CCOCC3)n2)cc1	78.8
COc1ccc(/C=C2/C(=O)N(c3ccccc3)N=C2C)c(OC)c1	30.7
Nc1cc(=O)n(Cc2ccccc2)c(=O)n1Cc1ccccc1	0.22
COc1cc(/C=C/C2=CC(C)(C)NC(=S)N2)cc(OC)c1OC	26.3
CC(C)(C)OC(=O)NNc1c2ccccc2nc2ccccc12	23.2
COCCNc1cc(-c2ccccc2)nc2cc(-c3cccc(F)c3)nn12	71.2
N=C1c2ccccc2-c2ccccc21	-9.24
COc1ccccc1NC(=O)c1cc(Cl)nc2ccccc12	66.5
COc1ccc2c(c1)c(=Cc1ccc(N(C)C)cc1)c1cc(-c3ccccc3)[n+](C)n12	-63.4
COc1ccc(NC(=O)c2cc(-c3cc(OC)c(OC)c(OC)c3)nc3ccccc23)c(OC)c1	78.3
CC(C)c1ccc(C=NNc2ccc([N+](=O)[O-])cn2)cc1	-2.92
CC(=O)N1CCN(C(=O)Nc2cccc(C(F)(F)F)c2)CC1	-9.59
O=S(=O)(Nc1ccc2ccccc2c1)N1CCCCC1	1.03
COc1ccc(-c2sc3ccc(OC)cc3c2C#Cc2ccccn2)cc1	56.6
O=C(N/N=C/c1cccnc1)c1cc2ccccc2cc1O	25.7
CC(C)C(=O)Nc1cccc(NC(=O)c2ccc([N+](=O)[O-])cc2Cl)c1	-2.31
COc1ccc2sc(-c3ccc(S(C)(=O)=O)cc3)c(C#Cc3cncn3C)c2c1	13.9
O=C(Cc1ccc(NC(=O)C2CCCN(C(=O)C3CCCCC3)C2)cc1)Nc1cccc(C(=O)N2CCCCC2)c1 (stereo not given)	43.2
COc1ccc(/C=N/Nc2cc(N3CCOCC3)nc(C)n2)c(OC)c1	52.8
Cc1ccc(Nc2nc(N3CCOCC3)nc(N3CCOCC3)n2)cc1Cl	55
COc1ccc2sc(-c3ccc(N(C)C)cc3)c(-c3ccc4cc[nH]c4c3)c2c1	85
COCCNC(=S)N/N=C/c1c(C)[nH]c2ccccc12	2.4
CCCCN1CC(COCc2ccccc2)OCCS1(=O)=O (stereo not given)	-17.3
COc1ccc2c(c1)C(c1cccs1)=NNC(c1cccnc1)=N2	-13.8
O=C(COC(=O)c1ccc(O)cc1O)NC(=O)c1ccccc1	-38.7
Cc1cc([N+](=O)[O-])ccc1NC(=O)c1ccc(NC(=O)C(C)C)cc1	74.9
COc1ccc(NC(=O)c2cc3nc(-c4ccccc4)cc(C)n3n2)cc1OC	-10.7
CC1=CC(C)(C)N(C(=O)CSc2nccn2C)c2cc(C)ccc21	-2.67
Cc1nc(Cl)cc(N/N=C/c2ccccc2)n1	15.7
NC1=NOC(=O)C1C1CCCCC1 (stereo not given)	-14.7
COc1ccc2sc(-c3ccc(N(C)C)cc3)c(C#CCO)c2c1	99.4
CN1C(c2ccc(F)cc2)=CS/C1=C(/C#N)c1nnc2n1-c1ccccc1SC2	32.2
O=C(NNC(=O)c1ccc2ccccc2c1)c1ccc(Cl)cc1	-17.1
O=C(Nc1cccc(NC(=O)N2CCN(c3ccccc3)CC2)c1)N1CCN(c2ccccc2)CC1	86
COc1ccc(Cl)cc1C=CC=Nc1ccc(S(N)(=O)=O)cc1	-39.7
CCOc1ccc(Nc2nc(Cl)nc(N3CCN(c4ccc(OC)cc4)CC3)n2)cc1	73.8
COc1cc(C(=O)NNC(=O)c2ccc(S(=O)(=O)N3CCCCC3)cc2)cc(OC)c1OC	-0.571
CN=c1scc(-c2cc(OC)ccc2OC)n1/N=C/c1c(C)[nH]c2ccccc12	77.2
COc1cccc(/C=N/NC(=O)CNC(=O)c2ccc(S(=O)(=O)N3CCOCC3)cc2)c1OC	8.73
Nc1cc2c(cc1Br)-c1ccc(F)cc1C2=O	22.3
O=C(NNc1c2ccccc2nc2ccccc12)c1cc2ccccc2cc1O	117
COc1ccc2sc(-c3ccc(S(C)(=O)=O)cc3)c(-c3ccc(C(N)=O)cc3)c2c1	54.1
COc1ccc(/C=C/C2=CC(C)(C)NC(=S)N2)c(OC)c1	78.2

* * *

# maps each entry to its inhibition
molecular target: Scavenger receptor class B member 1 (Mus musculus) (UniProt Q61009); test: mouse SR-BI DiI-HDL uptake blockers – ldlA[mSR-BI] cells, fluorescence, single point, primary screen (AID 488896); conditions: ldlA[mSR-BI] CHO cells, 3 h, at 12.5 µM, stronger effect = higher value;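 also: 0% = median of neutral control wells and 100% = median of positive control wells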
The whole screen tested about 320,000 compounds, of which about 3,100 (0.97%) were called active. The entries come from a sample that favours actives as a whole.
measured.attribute: inhibition

O=C(Nc1ccccc1Cl)c1ccccc1S(=O)(=O)c1ccccc1[N+](=O)[O-]	4.02% (inactive)
CCC(C)C1(C2CCCC2)NC(=O)NC1=O (stereo unspecified)	-1.25% (inactive)
Cc1[nH]n(-c2ccccc2)c(=O)c1/C=N/NC(=O)c1ccoc1C	69.6% (inactive)
C/C(=N\NC(=O)c1ccoc1C)c1ccccc1O	95.2% (active)
CC(=O)Nc1ccc(NC(=O)COc2ccccc2C(=O)Nc2cccc(Cl)c2Cl)cc1	63.3% (inactive)
O=C(NOCc1ccccc1)c1cccc([N+](=O)[O-])c1	-13.8% (inactive)
CC(C)=C(NC(=O)c1ccccc1)C(=O)N/N=C(\C)c1ccccc1O	-7.68% (inactive)
O=C(N/N=C/c1ccccc1O)/C(=C/c1ccccc1)CCO	24.8% (inactive)
CCOC(=O)[C@H]1[C@H]2COc3ccc(Br)cc3[C@@H]2N2C(=O)CN(C)C(=O)[C@@]12C	-11.5% (inactive)
CCc1ccc2c(c1)C1(NN=C(c3ccccc3)S1)C(=O)N2 (stereo unspecified)	115% (active)
COc1ccc(C(=O)NC(=S)Nc2ccccc2N2CCN(S(C)(=O)=O)CC2)cc1OC	74.4% (active)
